Cited source for all entries: ChEMBL document CHEMBL3091398

experiment: Half life in human liver microsomes at 2 uM; type: ADME
PROPERTY_MEASURED: half-life at 2 µM

smiles_data=CC(C)N(c1ccc(Oc2ncccc2C(F)(F)F)cc1C(=O)O)C(=O)[C@H]1CC[C@H](C)CC1 result="69 min"
smiles_data=Cc1ccc(S(=O)(=O)Nc2ccc(Oc3ccccc3C(F)(F)F)cc2C(=O)O)cc1 result="12 min"

====

test system: Hepatitis C virus; test: Antiviral activity against HCV genotype 1b by cell-based luciferase reporter gene assay; format: functional, organism-based, Hepacivirus hominis
PROPERTY_MEASURED: EC50

smiles_data=O=C(O)c1ccc(Oc2ccccc2)cc1NS(=O)(=O)c1ccc(Br)cc1F property_measured=EC50 result="> 30 µM"
smiles_data=O=C(O)c1ccc(Oc2ccccc2)cc1NS(=O)(=O)c1ccc(Br)s1 property_measured=EC50 result="> 25 µM"
smiles_data=Cc1ccc(S(=O)(=O)Nc2ccc(Oc3ccccc3)cc2C(=O)O)cc1 property_measured=EC50 result="> 30 µM"
smiles_data=Cc1ccc(S(=O)(=O)Nc2ccc(Oc3ccc(C(=O)O)cc3)cc2C(=O)O)cc1 property_measured=EC50 result="> 30 µM"
smiles_data=CC(C)N(c1cc(Oc2ccccc2C(F)(F)F)ccc1C(=O)O)C(=O)[C@H]1CC[C@H](C)CC1 property_measured=EC50 result="4.5 µM"
